A collection of compounds and their measured pEC50
Tested on: Human immunodeficiency virus 1
Experiment: Antiviral activity against HIV-1 91DJ263 subtype CRF02_AG infected in human PBMC assessed as reverse transcriptase activity after 6 days by microtiter plate-based assay
Assay type: functional, organism-based
Conditions: Human immunodeficiency virus 1, 91DJ263 subtype CRF02_AG, 144 h
# pEC50: negative log10 of molar concentration; output just the value

1) CCOC(=O)c1cccc(Cn2ccc3ccc(-c4ccc5ccn(Cc6cccc(C(=O)O)c6)c5c4)cc32)c1	6.46

Give its pEC50 value. Item: `COC(=O)c1cccc(Cn2ccc3ccc(-c4ccc5ccn(Cc6cccc(C(=O)O)c6)c5c4)cc32)c1`
6.41

---

Experiment: Binding affinity to HIV1 Envelope glycoprotein gp41 Fe(env2.0)3 using C18FL as probe by fluorescence assay
Design: species or system Human immunodeficiency virus 1
Reported values of Ki for individual entries
Number only, in nM; omit the unit.

Observe how each entry below is paired with its result.
1. CCOC(=O)c1cccc(Cn2ccc3ccc(-c4ccc5ccn(Cc6cccc(C(=O)O)c6)c5c4)cc32)c1	1000
2. O=C(O)c1cccc(Cc2c[nH]c3ccc(-c4ccc5cc[nH]c5c4)cc23)c1	1700
3. COc1cccc(Cn2ccc3ccc(-c4ccc5ccn(Cc6cccc(C(=O)O)c6)c5c4)cc32)c1	1100
4. O=C(O)c1cccc(Cn2ccc3ccc(-c4ccc5ccn(Cc6ccc(COc7ccccc7)cc6)c5c4)cc32)c1	6200

Any idea what Ki was measured for `COc1cccc(Cn2cnc3cc(-c4ccc5ccn(Cc6cccc(C(=O)O)c6)c5c4)ccc32)c1` ?
5300

Then this compound: `Cn1ccc2ccc(-c3ccc4ccn(Cc5cccc(C(=O)O)c5)c4c3)cc21`
300

`COc1cc(Cn2ccc3ccc(-c4ccc5ccn(Cc6cccc(C(=O)O)c6)c5c4)cc32)cc(OC)c1` , same question.
900

Same lookup for `COc1ccc(Cn2ccc3ccc(-c4ccc5c(ccn5Cc5cccc(C(=O)O)c5)c4)cc32)cc1` , please.
3000

How about this compound: `O=C(O)c1cccc(Cn2ccc3ccc(-c4ccc5ccn(Cc6ccccc6)c5c4)cc32)c1`
3500

---

Overview of reported pKi across a group of molecules:
Assay: Binding affinity to HIV1 Envelope glycoprotein gp41 Fe(env2.0)3 using C18FL as probe by fluorescence assay
Design: species or system Human immunodeficiency virus 1
// returns pKi (minus log10 of molar concentration), number only

1. COc1ccc(Cn2ccc3cc(-c4ccc5c(ccn5Cc5cccc(C(=O)O)c5)c4)ccc32)cc1	5.41

Quick one: pKi for `O=C(O)c1cccc(Cn2ccc3ccc(-c4ccc5cc[nH]c5c4)cc32)c1` ?
5.57

Query `COc1cccc(Cn2ccc3ccc(-c4ccc5c(c4)ncn5Cc4cccc(C(=O)O)c4)cc32)c1` next
5.42

Now the molecule `COc1cccc(Cn2ccc3ccc(-c4ccc5c(Cc6cccc(C(=O)O)c6)c[nH]c5c4)cc32)c1`
5.80

Then this molecule: `O=C(O)c1cccc(Cn2cnc3ccc(-c4ccc5cc[nH]c5c4)cc32)c1`
4.96

Now give it for `COc1cccc(Cn2cnc3ccc(-c4ccc5ccn(Cc6cccc(C(=O)O)c6)c5c4)cc32)c1` too.
5.33

Consider next the molecule `COc1cccc(Cc2c[nH]c3cc(-c4ccc5ccn(Cc6cccc(C(=O)O)c6)c5c4)ccc23)c1` in the same way.
6.05

Another molecule to check: `Cn1nnc2ccc(Cn3ccc4ccc(-c5ccc6ccn(Cc7cccc(C(=O)O)c7)c6c5)cc43)cc21`
5.82

Next: `O=C(O)c1cccc(Cn2ccc3ccc(-c4ccc5ccn(Cc6cccc(C(=O)O)c6)c5c4)cc32)c1`
6.22
